- target_system: human ORL-1 receptor (Homo sapiens)
- Construct: host or cells: recombinant HEK-293 cells
- Sequence (P41146 whole entry): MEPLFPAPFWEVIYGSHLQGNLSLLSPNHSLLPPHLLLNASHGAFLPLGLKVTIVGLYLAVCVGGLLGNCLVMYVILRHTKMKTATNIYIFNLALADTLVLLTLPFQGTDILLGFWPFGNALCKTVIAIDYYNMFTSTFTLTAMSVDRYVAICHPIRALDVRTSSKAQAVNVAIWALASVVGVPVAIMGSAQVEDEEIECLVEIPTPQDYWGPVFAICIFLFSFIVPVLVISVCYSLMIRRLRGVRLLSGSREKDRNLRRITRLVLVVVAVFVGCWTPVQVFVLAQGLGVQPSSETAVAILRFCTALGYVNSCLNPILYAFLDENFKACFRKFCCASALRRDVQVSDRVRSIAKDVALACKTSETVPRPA
- test_description: [35S]GTPγS functional assay with ORL-1 receptor membranes
- Assay type: biochemical
- test_context: [35S]GTPγS functional assay; NC = 100

{"columns": ["compound", "target_system", "Emax [%]"],
 "data": [
  ["CC(C)C[C@H](NC(=O)[C@H](CCCCN)NC(=O)[C@H](CCCNC(=N)N)NC(=O)C(C)(C)NC(=O)[C@H](CO)NC(=O)[C@H](CCCCN)NC(=O)[C@H](CCCNC(=N)N)NC(=O)[C@H](C)NC(=O)CNC(=O)[C@@H](NC(=O)[C@H](Cc1ccccc1)NC(=O)CNC(=O)CNC(=O)[C@@H](N)Cc1ccccc1)[C@@H](C)O)C(=O)N[C@@H](C)C(=O)N[C@@H](CC(N)=O)C(=O)N[C@@H](CCC(N)=O)C(N)=O [IIA]", "human ORL-1 receptor (Homo sapiens)", 82]
]}
